The reader will find reported relative integration efficiency (log2) values listed item by item below.
B1: library; a variant is named by its letters at N, in order (parent)
chain: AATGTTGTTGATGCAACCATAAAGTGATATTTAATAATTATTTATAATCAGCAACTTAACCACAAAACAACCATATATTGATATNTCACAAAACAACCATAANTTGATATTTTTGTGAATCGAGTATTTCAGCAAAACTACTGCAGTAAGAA

Variants of: B1
Procedure Text: relative integration efficiency (T-LR orientation) vs wild-type transposon end (log2 (normalized fold change)); transposon end mutated: left end; higher = more efficient transposition
Stated Conditions: with VchCAST RNA-guided transposition machinery (E. coli BL21(DE3) host, lacZ target)
Answer field: number only, no words.

Given the variant CG T12A G13A T30A T32A A77C T86G , what is its reported relative integration efficiency (log2)?
-0.499

I am curious: what relative integration efficiency (log2) value has been reported for GG T84A T86A C87G ?
0.0518

So what's the measured relative integration efficiency (log2) for this one? CG T38A T39A A40T T41A
-0.9
